TESTED_ON: PTHR1 (Rattus norvegicus)
Sequence (P25961 27-591): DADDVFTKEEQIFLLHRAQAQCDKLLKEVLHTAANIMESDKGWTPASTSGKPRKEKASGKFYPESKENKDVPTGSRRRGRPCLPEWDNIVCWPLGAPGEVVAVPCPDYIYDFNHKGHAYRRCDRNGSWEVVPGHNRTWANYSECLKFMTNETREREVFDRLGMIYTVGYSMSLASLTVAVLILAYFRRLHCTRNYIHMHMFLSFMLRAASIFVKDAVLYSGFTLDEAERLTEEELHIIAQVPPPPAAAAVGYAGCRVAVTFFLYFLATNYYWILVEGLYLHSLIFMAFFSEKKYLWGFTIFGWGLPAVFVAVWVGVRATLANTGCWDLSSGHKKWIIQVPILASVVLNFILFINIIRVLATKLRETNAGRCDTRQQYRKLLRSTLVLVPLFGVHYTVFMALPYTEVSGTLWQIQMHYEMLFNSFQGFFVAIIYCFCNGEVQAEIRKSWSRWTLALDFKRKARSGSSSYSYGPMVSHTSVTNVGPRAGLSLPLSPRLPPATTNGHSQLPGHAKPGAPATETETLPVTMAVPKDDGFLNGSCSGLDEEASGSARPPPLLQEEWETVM
EXPERIMENT: cAMP screening assay using DiscoveRX XS+ kit (PTH1-34 dose-response in UMR-106 cells)
RECORDED_CONDITIONS: compound 10 μM, PTH1-34 EC50 compound/EC50 vehicle
QUANTITY_NAME: Fold Shift of EC50
Returns: the value as a bare number; no unit string appended.

Solved cases below.
{"columns": ["SEQUENCE_STRING", "Fold Shift of EC50"],
 "data": [
  ["TNAGRSDTRQQYRKLLFS [Compound 85]", 6.9],
  ["TNAGRSDTRQQARKLL [Compound 92]", 5],
  ["TNAGRSDTAQQYRKLL [Compound 78]", 12.7]
]}

API: the following record is the query input.
// fetch Fold Shift of EC50 given entry AGRSDTRQQYRKLLFS [Compound 95] 19

meta.source: patent US20110294738A1
